B1: VH:VL chains; a variant is named by its letters at X, in order (parent)
chain 1: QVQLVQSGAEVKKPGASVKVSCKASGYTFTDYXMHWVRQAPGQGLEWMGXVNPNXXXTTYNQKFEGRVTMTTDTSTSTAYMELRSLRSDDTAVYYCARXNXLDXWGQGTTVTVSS
chain 2: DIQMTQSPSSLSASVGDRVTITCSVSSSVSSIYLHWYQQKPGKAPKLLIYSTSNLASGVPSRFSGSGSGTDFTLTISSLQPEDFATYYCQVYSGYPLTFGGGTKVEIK

Variants of: B1
Experiment: yeast display scFab, FACS + sequencing
Value Kind: non-specific binding call

# annotated cases, reported non-specific binding call shown
Mutant Label: SAGRGDGS
non-specific binding call: no binding
--
Mutant Label: YRGRDVGY
non-specific binding call: binds
--
Mutant Label: YRRGSFGA
non-specific binding call: binds
--
Mutant Label: YRTEDVGA
non-specific binding call: binds
--
Mutant Label: VRKGGVAV
non-specific binding call: binds
--
Mutant Label: FRARGAGS
non-specific binding call: binds
--
Mutant Label: YRRRGSSD
non-specific binding call: binds
--
Mutant Label: SREAADWA
non-specific binding call: no binding
--
Mutant Label: VKGRASWS
non-specific binding call: no binding
--
Mutant Label: DTTGSALD
non-specific binding call: no binding

Inquiry: Give recorded non-specific binding call. YRAKGALS
Reply text: binds

Inquiry: Give recorded non-specific binding call. FRAGGAGA
Reply text: binds

Inquiry: Give recorded non-specific binding call. VKARGSGV
Reply text: binds
